Hey, just so you know, these numbers are from patent US20060276464A1.

Sequence of the target: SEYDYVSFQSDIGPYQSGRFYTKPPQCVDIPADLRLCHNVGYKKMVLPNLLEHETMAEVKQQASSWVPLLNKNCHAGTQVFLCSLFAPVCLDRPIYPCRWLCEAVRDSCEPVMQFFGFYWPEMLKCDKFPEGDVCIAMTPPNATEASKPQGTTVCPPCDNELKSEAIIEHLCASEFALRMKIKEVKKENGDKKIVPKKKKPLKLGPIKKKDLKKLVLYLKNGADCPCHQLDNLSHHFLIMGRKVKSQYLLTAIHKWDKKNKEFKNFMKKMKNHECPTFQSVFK
readoutName: pIC50
Quick note: pIC50 means taking -log10 of the concentration in moles per liter.

See these solved cases before continuing.
smilesRecord: COC(=O)c1ccc(C(=O)N(C)CCNS(=O)(=O)c2cc(S(=O)(=O)c3ccccc3)ccc2C(F)(F)F)cc1
readoutName: pIC50
recordedResult: 6.15
//
smilesRecord: CN(CCNS(=O)(=O)c1cc(S(=O)(=O)c2ccccc2)ccc1C(F)(F)F)C(=O)NC1CCNCC1
readoutName: pIC50
recordedResult: 6.55
//
smilesRecord: O=S(=O)(NCCCN1CCOCC1)c1cc(S(=O)(=O)c2ccccc2)ccc1C(F)(F)F
readoutName: pIC50
recordedResult: 6.05
//
smilesRecord: COC(=O)[C@H]1CC[C@H](CNS(=O)(=O)c2cc(S(=O)(=O)c3ccccc3)ccc2C(F)(F)F)CC1
readoutName: pIC50
recordedResult: 6.40

Inquiry: Item under review: "O=S(=O)(NCCc1ccccn1)c1cc(S(=O)(=O)c2ccccc2)ccc1Br" . Reported pIC50?
Reply text: 6.00

Inquiry: Item under review: "CN(CCNS(=O)(=O)c1cc(S(=O)(=O)c2ccccc2)ccc1C(F)(F)F)C(=O)Nc1cccnc1" . Reported pIC50?
Reply text: 6.60

Inquiry: Item under review: "CC(C)c1ccc(S(=O)(=O)c2ccc(N3CCN(C(=O)OC(C)(C)C)CC3)cc2)cc1S(=O)(=O)NC1CCOCC1" . Reported pIC50?
Reply text: 5.52

###

- assayedSystem: UniProtKB Q8N474
- assayMethodText: Cell-based assay for in vitro measurement of SFRP-1/SARP2 antagonist activity (U2OS cells co-transfected with 16x TCF-tk-Luciferase reporter, Wnt and hSFRP-1)
- recordedConditions: U2OS, read-out: Fold Induction with SFRP-1, Conc 15 μM; single dose; luciferase reporter, fold induction over SFRP-1 control; cells with SFRP-1
Please note: T applies when fold induction at 15 µM is 2 or greater, and F applies otherwise.

Inquiry: fold induction at 15 µM >= 2 for "CC(C)(C)OC(=O)N1CCC(NS(=O)(=O)c2cc(S(=O)(=O)c3ccccc3)ccc2Cl)CC1" ?
Reply text: T

Inquiry: fold induction at 15 µM >= 2 for "CC(C)(C)NC(=O)N1CCC(NS(=O)(=O)c2cc(S(=O)(=O)c3ccccc3)ccc2Cl)CC1" ?
Reply text: T

Inquiry: fold induction at 15 µM >= 2 for "Cc1ccc(S(=O)(=O)c2ccccc2)cc1S(=O)(=O)NC1CCN(C(=O)N2CCOCC2)CC1" ?
Reply text: T

Inquiry: fold induction at 15 µM >= 2 for "Cc1ccc(S(=O)(=O)c2ccc(F)cc2)cc1S(=O)(=O)N(C(=O)C1CC1)C1CCN(C(=O)C2CC2)CC1" ?
Reply text: F

Inquiry: fold induction at 15 µM >= 2 for "CC(C)c1cc(C(C)C)c(S(=O)(=O)c2ccc(F)cc2)cc1S(=O)(=O)NC1CCCC1" ?
Reply text: F

Inquiry: fold induction at 15 µM >= 2 for "CC(C)c1ccc(S(=O)(=O)c2ccc(N3CCN(C)CC3)cc2)cc1S(=O)(=O)NCC1CCOCC1" ?
Reply text: T

Inquiry: fold induction at 15 µM >= 2 for "CN1CCN(CCCNS(=O)(=O)c2cc(S(=O)(=O)c3ccccc3)ccc2Cl)CC1" ?
Reply text: T

###

- assayedSystem: SFRP-1 (Homo sapiens, UniProt Q8N474)
- assayMethodText: Cell-based assay for in vitro measurement of SFRP-1/SARP2 antagonist activity (U2OS cells co-transfected with 16x TCF-tk-Luciferase reporter, Wnt and hSFRP-1);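 note: U2OS cells co-transfected with a TCF-tk luciferase reporter, a Wnt vector, hSFRP-1 or empty vector and CMV-βgal, luciferase luminescence read in cell lysates alongside βgal activity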
- recordedConditions: U2OS, read-out: Fold Induction with SFRP-1, U2OS cells, single dose 10 μM, luciferase reporter, fold induction over SFRP-1 control
readoutName: fold induction at 10 µM
Returns: the value as a bare number; no unit string appended.

See these solved cases before continuing.
smilesRecord: O=S(=O)(NCCc1ccncc1)c1cc(S(=O)(=O)c2ccccc2)ccc1C(F)(F)F
assayedSystem: SFRP-1 (Homo sapiens, UniProt Q8N474)
fold induction at 10 µM: 3.5
//
smilesRecord: CN(CCNS(=O)(=O)c1cc(S(=O)(=O)c2ccccc2)ccc1C(F)(F)F)CCC(=O)OC(C)(C)C
assayedSystem: SFRP-1 (Homo sapiens, UniProt Q8N474)
fold induction at 10 µM: 2.8
//
smilesRecord: CC(C)c1ccc(S(=O)(=O)c2ccccc2)cc1S(=O)(=O)NC1CCN(C(=O)c2ccccc2F)CC1
assayedSystem: SFRP-1 (Homo sapiens, UniProt Q8N474)
fold induction at 10 µM: 2.8
//
smilesRecord: O=C(O)c1cccc(S(=O)(=O)Nc2ccc(CNS(=O)(=O)c3cc(S(=O)(=O)c4ccccc4)ccc3C(F)(F)F)cc2)c1
assayedSystem: SFRP-1 (Homo sapiens, UniProt Q8N474)
fold induction at 10 µM: 3.5
//
smilesRecord: O=S(=O)(NCCc1ccc(O)cc1)c1cc(S(=O)(=O)c2ccccc2)ccc1C(F)(F)F
assayedSystem: SFRP-1 (Homo sapiens, UniProt Q8N474)
fold induction at 10 µM: 3.4

Inquiry: Item under review: "CC(C)c1ccc(S(=O)(=O)c2ccccc2)cc1S(=O)(=O)NC1CCN(C(=O)c2cccc(C#N)c2)CC1" . Reported fold induction at 10 µM?
Reply text: 3.1

Inquiry: Item under review: "CC(C)(C)c1ccc(C(=O)N2CCC(NS(=O)(=O)c3cc(S(=O)(=O)c4ccccc4)ccc3C(F)(F)F)CC2)cc1" . Reported fold induction at 10 µM?
Reply text: 6.7

Inquiry: Item under review: "O=S(=O)(NCCn1ccnc1)c1cc(S(=O)(=O)c2ccc(F)cc2)ccc1C(F)(F)F" . Reported fold induction at 10 µM?
Reply text: 3.8

Inquiry: Item under review: "O=C(c1ccc(F)c(F)c1)N1CCC(NS(=O)(=O)c2cc(S(=O)(=O)c3ccccc3)ccc2C(F)(F)F)CC1" . Reported fold induction at 10 µM?
Reply text: 3.5

Inquiry: Item under review: "O=C(CN1CCC(NS(=O)(=O)c2cc(S(=O)(=O)c3ccccc3)ccc2C(F)(F)F)CC1)c1ccccc1" . Reported fold induction at 10 µM?
Reply text: 3.1

Inquiry: Item under review: "O=C(O)CCCNS(=O)(=O)c1cc(S(=O)(=O)c2ccccc2)ccc1C(F)(F)F" . Reported fold induction at 10 µM?
Reply text: 1.8

Inquiry: Item under review: "O=S(=O)(NCCO)c1cc(S(=O)(=O)c2ccccc2)ccc1C(F)(F)F" . Reported fold induction at 10 µM?
Reply text: 3.4

Inquiry: Item under review: "CC(C)c1ccc(S(=O)(=O)c2ccccc2)cc1S(=O)(=O)NC[C@H]1CC[C@H](C(=O)O)CC1" . Reported fold induction at 10 µM?
Reply text: 2.2

Inquiry: Item under review: "CC(C)c1ccc(S(=O)(=O)c2ccc(F)cc2)cc1S(=O)(=O)NC1CCN(C(=S)Nc2ccc(C(F)(F)F)cc2)CC1" . Reported fold induction at 10 µM?
Reply text: 2.2

Inquiry: Item under review: "O=C(c1ccc(F)cc1Cl)N1CCC(NS(=O)(=O)c2cc(S(=O)(=O)c3ccccc3)ccc2C(F)(F)F)CC1" . Reported fold induction at 10 µM?
Reply text: 4.2

###

- assayedSystem: SFRP-1 (Homo sapiens)
readoutName: IC50 (nM)
Give the quantity in nM, number only.

See these solved cases before continuing.
smilesRecord: CC(C)c1ccc(S(=O)(=O)c2ccccc2)cc1S(=O)(=O)NC1CCN(C(=O)c2ccc3ccccc3c2)CC1
IC50, nM: 1100
//
smilesRecord: COc1ccc(NC(=O)N(C)CCNS(=O)(=O)c2cc(S(=O)(=O)c3ccccc3)ccc2C(F)(F)F)c(OC)c1
IC50, nM: 300
//
smilesRecord: CC(C)c1ccc(S(=O)(=O)c2ccc(C(C)(C)C)cc2)cc1S(=O)(=O)NCCCn1ccnc1
IC50, nM: 1000

Continue with the next compound.
Inquiry: # returns recorded IC50 (system: SFRP-1 (Homo sapiens)) for "CCOC(=O)N1CCC(NS(=O)(=O)c2cc(S(=O)(=O)c3ccc(F)cc3)ccc2C(C)C)CC1"
Reply text: 500

###

- assayedSystem: UniProt Q8N474
- Sequence (Q8N474 32-314): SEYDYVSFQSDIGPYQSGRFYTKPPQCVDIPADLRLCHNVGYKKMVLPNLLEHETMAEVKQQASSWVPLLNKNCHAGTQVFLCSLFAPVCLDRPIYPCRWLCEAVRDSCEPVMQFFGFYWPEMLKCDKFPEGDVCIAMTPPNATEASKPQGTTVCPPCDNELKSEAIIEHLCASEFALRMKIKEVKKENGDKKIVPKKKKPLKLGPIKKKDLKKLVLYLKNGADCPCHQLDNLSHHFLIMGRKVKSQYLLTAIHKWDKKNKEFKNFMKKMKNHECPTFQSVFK
pIC50: −log10 of the molar value.
Please note: Met applies when pIC50 is 6 or greater, and Not met applies otherwise.

Use these answered entries as a reference point.
compound: CC(C)c1ccc(S(=O)(=O)c2cccc(Cl)c2)cc1S(=O)(=O)NCCc1ccccn1
cat: Met
--
compound: CC(C)c1ccc(S(=O)(=O)c2ccc(F)cc2)cc1S(=O)(=O)NCCC1CCCNC1 (stereo not shown)
cat: Not met

Inquiry: pIC50 >= 6 for "O=C(c1ccc(F)c(F)c1)N1CCC(NS(=O)(=O)c2cc(S(=O)(=O)c3ccccc3)ccc2C(F)(F)F)CC1" ?
Reply text: Met

Inquiry: pIC50 >= 6 for CC(C)c1ccc(S(=O)(=O)c2ccc(F)cc2)cc1S(=O)(=O)NCC1CCCO1 (stereo not shown) ?
Reply text: Not met

Inquiry: pIC50 >= 6 for "CC(C)(C)OC(=O)N1CCC(CCNS(=O)(=O)c2cc(S(=O)(=O)c3ccccc3)ccc2C(F)(F)F)CC1" ?
Reply text: Not met

Inquiry: pIC50 >= 6 for "COc1ccc(C(=O)N2CCC(NS(=O)(=O)c3cc(S(=O)(=O)c4ccccc4)ccc3C)CC2)cc1" ?
Reply text: Not met
